# credit: patent US20210070748A1

The entries below are paired with their reported pIC50.
molecular target: ITK (Homo sapiens, UniProt Q08881); assay: Inhibition of a panel of kinases, in vitro HotSpot kinase assay: ITK; type: biochemical; conditions: E compounds, Table 17
pIC50: −log10 of the molar value.

# smiles-text, pIC50
measured = [
    ("CN(c1cnc(C(N)=O)c(Nc2ccc(C3(C)CCN(C4CC4)CC3)cc2)n1)[C@@H]1CCN(C(=O)C(F)(F)F)C1", "≥ 8.00"),
    ("C=CC(=O)N1CC[C@@H](N(C)c2cnc(C(N)=O)c(Nc3ccc(N4CCN(C)CC4)cc3)n2)C1", "≥ 8.00"),
    ("C=CC(=O)N1CCCC[C@H](Nc2nnc(C(N)=O)c(Nc3ccc(C(C)C)cc3)n2)C1", "6.00 to 7.00"),
    ("C=CC(=O)N1CCC[C@@H](Nc2nnc(C(N)=O)c(Nc3ccc(-n4nccn4)cc3)n2)C1", "7.00 to 8.00"),
]

====

Biological target: ITK (Homo sapiens)
Sequence (Q08881 1-620): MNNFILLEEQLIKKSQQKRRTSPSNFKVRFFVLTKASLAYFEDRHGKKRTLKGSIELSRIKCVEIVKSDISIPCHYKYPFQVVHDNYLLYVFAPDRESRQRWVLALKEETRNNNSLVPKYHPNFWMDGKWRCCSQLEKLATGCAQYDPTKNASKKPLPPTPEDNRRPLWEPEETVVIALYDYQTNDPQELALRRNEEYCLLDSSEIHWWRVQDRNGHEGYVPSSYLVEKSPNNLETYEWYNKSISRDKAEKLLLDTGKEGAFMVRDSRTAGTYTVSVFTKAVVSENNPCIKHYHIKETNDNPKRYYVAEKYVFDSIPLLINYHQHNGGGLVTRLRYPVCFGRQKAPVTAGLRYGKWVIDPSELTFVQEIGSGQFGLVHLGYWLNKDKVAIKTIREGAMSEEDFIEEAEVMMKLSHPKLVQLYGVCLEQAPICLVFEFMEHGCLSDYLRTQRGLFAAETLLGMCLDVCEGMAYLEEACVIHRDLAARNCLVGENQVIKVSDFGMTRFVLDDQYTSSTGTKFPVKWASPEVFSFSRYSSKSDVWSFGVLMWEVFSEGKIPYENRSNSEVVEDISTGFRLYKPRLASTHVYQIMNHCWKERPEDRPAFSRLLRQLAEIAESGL
Assay: Inhibition of a panel of kinases, in vitro HotSpot kinase assay: ITK
Format: biochemical
Conditions: D-compounds panel data; 1 μM ATP
pIC50: −log10 of the molar value.
Measured pIC50, listed per entry.

# molecule, pIC50
records = [
    ("C[C@@H]1[C@H](NC(=O)c2ccc(C3CC3)cc2)CCCN1c1cnc(C(N)=O)c(Nc2cnc(N3CCN(C)CC3)nc2)n1", "6.00 to 7.00"),
    ("C[C@@H]1[C@H](NC(=O)c2ccc(C3CC3)cc2F)CCCN1c1cnc(C(N)=O)c(Nc2ccc(N3CCN(C)CC3)cc2)c1", "5.00 to 6.00"),
    ("C[C@@H]1[C@H](N2Cc3cc(C4CC4)ccc3C2=O)CCCN1c1cnc(C(N)=O)c(Nc2cnn(C)c2)n1", "6.00 to 7.00"),
    ("C[C@H]1CC[C@@H](NC(=O)c2ccc(C3CC3)cc2)CN1c1cnc(C(N)=O)c(Nc2ccc(N3CCN(C)CC3)cc2)n1", "5.00 to 6.00"),
    ("Cc1cc(Nc2nc(N3CCCC(c4ncc(-c5ccccc5)[nH]4)C3)cnc2C(N)=O)sn1 (stereo not drawn)", "5.00 to 6.00"),
    ("CN1CCN(C(=O)c2ccc(Nc3nc(N[C@H]4CC[C@@H](NC(=O)c5ccc(C6CC6)cc5F)CC4)cnc3C(N)=O)cc2)CC1", "5.00 to 6.00"),
]

====

biological target: TEC (Homo sapiens, UniProt P42680); assay: Inhibition of a panel of kinases, in vitro HotSpot kinase assay: TEC; format: biochemical; conditions: E compounds, Table 17
Sequence (P42680 whole entry): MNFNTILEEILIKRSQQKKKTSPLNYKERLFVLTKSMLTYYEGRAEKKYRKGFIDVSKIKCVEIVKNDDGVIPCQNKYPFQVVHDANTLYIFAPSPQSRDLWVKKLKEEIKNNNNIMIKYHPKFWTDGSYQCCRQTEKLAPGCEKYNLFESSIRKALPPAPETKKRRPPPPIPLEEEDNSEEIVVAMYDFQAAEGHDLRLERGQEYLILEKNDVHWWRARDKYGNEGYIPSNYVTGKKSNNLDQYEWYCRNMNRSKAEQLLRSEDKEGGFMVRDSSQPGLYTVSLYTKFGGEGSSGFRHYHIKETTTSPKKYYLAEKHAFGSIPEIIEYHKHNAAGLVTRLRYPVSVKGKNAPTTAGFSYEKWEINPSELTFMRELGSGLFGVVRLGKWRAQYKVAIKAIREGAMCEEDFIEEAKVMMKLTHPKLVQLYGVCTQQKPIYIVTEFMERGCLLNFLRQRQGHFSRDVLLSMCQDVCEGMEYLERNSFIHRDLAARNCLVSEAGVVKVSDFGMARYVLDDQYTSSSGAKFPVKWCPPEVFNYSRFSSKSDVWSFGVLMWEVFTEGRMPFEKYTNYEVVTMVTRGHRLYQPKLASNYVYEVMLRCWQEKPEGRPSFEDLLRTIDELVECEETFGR
pIC50: −log10 of the molar value.

# compound, pIC50
records = [
    ("C[C@@H]1[C@H](NC(=O)c2ccc(C(C)(C)N3CCCC3)cc2)CCCN1c1cnc(C(N)=O)c(Nc2cnn(C)c2)n1", "≥ 8.00"),
    ("C=CC(=O)N1CC[C@@H](N(C)c2cnc(C(N)=O)c(Nc3cccc(-c4nccn4C)c3)n2)C1", "≥ 8.00"),
    ("C[C@@H]1[C@H](NC(=O)c2ccc(C3CC3)cc2)CCCN1c1cnc(C(N)=O)c(Nc2ccc(OC3CCN(C)C3)cc2)n1 (some centres unmarked)", "≥ 8.00"),
    ("Cn1cc(Nc2nc(N3CCC4CCN(C(=O)c5ccc(C6CC6)cc5)C4C3)cnc2C(N)=O)cn1 (centres unmarked)", "6.00 to 7.00"),
    ("CCC(O)(CC)c1ccc(C(=O)N[C@@H]2CCCN(c3cnc(C(N)=O)c(Nc4cnn(C)c4)n3)[C@@H]2C)cc1", "≥ 8.00"),
]

====

target: SRC (Homo sapiens, UniProt P12931); assay: Inhibition of a panel of kinases, in vitro HotSpot kinase assay: SRC; format: biochemical; settings: D-compounds panel data; 1 μM ATP
Sequence (P12931 whole entry): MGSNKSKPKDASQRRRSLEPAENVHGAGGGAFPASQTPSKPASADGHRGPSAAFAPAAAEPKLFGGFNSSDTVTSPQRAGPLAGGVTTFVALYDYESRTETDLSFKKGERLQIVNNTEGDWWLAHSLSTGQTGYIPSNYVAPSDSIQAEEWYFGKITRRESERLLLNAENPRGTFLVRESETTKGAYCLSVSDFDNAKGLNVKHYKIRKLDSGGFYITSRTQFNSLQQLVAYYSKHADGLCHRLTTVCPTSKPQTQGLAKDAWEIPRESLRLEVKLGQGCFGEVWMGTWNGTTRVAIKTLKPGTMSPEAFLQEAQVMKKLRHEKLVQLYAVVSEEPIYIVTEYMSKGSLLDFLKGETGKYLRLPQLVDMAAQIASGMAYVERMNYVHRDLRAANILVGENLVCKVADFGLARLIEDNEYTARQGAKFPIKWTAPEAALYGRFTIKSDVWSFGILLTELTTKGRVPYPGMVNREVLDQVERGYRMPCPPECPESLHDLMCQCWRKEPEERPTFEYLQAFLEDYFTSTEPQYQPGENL
pIC50: −log10 of the molar value.
endpoint: pIC50

# smiles-text, endpoint, measured-result
records = [
    ("C[C@@H]1[C@H](NC(=O)c2ccc(C3CC3)cc2F)CCCN1c1cnc(C(N)=O)c(Nc2ccc(N3CCNCC3)c(F)c2)n1", "pIC50", "7.00 to 8.00"),
    ("C[C@@H]1[C@H](NC(=O)c2ccc(C3(C(F)(F)F)CC3)cc2)CCCN1c1cnc(C(N)=O)c(Nc2cnn(C)c2)n1", "pIC50", "6.00 to 7.00"),
    ("C[C@H]1C[C@@H](NC(=O)c2ccc(C3CC3)cc2)CN(c2cnc(C(N)=O)c(Nc3cnn(C)c3)n2)C1", "pIC50", "6.00 to 7.00"),
    ("COCCN(C)c1ccc(C(=O)N[C@@H]2CCCN(c3cnc(C(N)=O)c(Nc4cnn(C)c4)n3)[C@@H]2C)cc1", "pIC50", "7.00 to 8.00"),
    ("CN1CCN(c2ccc(Nc3nc(N4CCC[C@@H](n5ccc6cc(C7CC7)ccc6c5=O)C4)cnc3C(N)=O)cc2)CC1", "pIC50", "6.00 to 7.00"),
    ("Cc1cc(Nc2nc(N3C[C@@H](NC(=O)N(C)C)CC[C@@H]3C)cnc2C(N)=O)sn1", "pIC50", "5.00 to 6.00"),
    ("CC(C)n1cc(Nc2nc(N3CCC[C@@H](NC(=O)c4ccc(C5CC5)cc4F)[C@H]3C)cnc2C(N)=O)cn1", "pIC50", "6.00 to 7.00"),
    ("C[C@@H]1[C@H](NC(=O)c2ccc(C3CC3)cc2)CCCN1c1cnc(C(N)=O)c(Nc2ccc3nccn3c2)n1", "pIC50", "6.00 to 7.00"),
    ("C[C@@H]1[C@H](NC(=O)c2ccc(C3CC3)cc2)CCCN1c1cnc(C(N)=O)c(Nc2ccc(N3CCN(CC(F)(F)F)CC3)cc2)n1", "pIC50", "6.00 to 7.00"),
    ("C[C@@H]1[C@H](NC(=O)c2ccc(C3CC3)cc2F)CCCN1c1cnc(C(N)=O)c(Nc2ccc(S(=O)(=O)N3CCCC3)cc2)n1", "pIC50", "< 5.00"),
    ("C[C@@H]1[C@H](NC(=O)c2ccc(C3CC3)cn2)CCCN1c1cnc(C(N)=O)c(Nc2ccc(N3CCN(C)CC3)cc2)n1", "pIC50", "7.00 to 8.00"),
    ("C[C@@H]1[C@H](NC(=O)c2ccc(C3CC3)cc2F)CCCN1c1cnc(C(N)=O)c(Nc2nc3c(s2)CN(C)CC3)n1", "pIC50", "< 5.00"),
    ("Cc1cc(Nc2nc(N3CCC[C@@H](NC(=O)N4Cc5ccccc5C4=O)C3)cnc2C(N)=O)sn1", "pIC50", "7.00 to 8.00"),
]

====

Quick reference: IC50 of the listed items.
biological target: BTK-WT (Homo sapiens, UniProt Q06187); construct: purified from insect cells as a full-length construct containing an N-terminal 6X-His tag; His6 (N); made in house; host or cells: insect cells (baculovirus Sf21 in Method B); test: Btk in vitro inhibitory activity (one of Method A TR-FRET, Method B electrophoretic mobility shift, Method C radiometric filter binding); type: biochemical; conditions: Table 10, Formula A-I; read-out: BTK-WT (IC50)
Sequence (Q06187 whole entry): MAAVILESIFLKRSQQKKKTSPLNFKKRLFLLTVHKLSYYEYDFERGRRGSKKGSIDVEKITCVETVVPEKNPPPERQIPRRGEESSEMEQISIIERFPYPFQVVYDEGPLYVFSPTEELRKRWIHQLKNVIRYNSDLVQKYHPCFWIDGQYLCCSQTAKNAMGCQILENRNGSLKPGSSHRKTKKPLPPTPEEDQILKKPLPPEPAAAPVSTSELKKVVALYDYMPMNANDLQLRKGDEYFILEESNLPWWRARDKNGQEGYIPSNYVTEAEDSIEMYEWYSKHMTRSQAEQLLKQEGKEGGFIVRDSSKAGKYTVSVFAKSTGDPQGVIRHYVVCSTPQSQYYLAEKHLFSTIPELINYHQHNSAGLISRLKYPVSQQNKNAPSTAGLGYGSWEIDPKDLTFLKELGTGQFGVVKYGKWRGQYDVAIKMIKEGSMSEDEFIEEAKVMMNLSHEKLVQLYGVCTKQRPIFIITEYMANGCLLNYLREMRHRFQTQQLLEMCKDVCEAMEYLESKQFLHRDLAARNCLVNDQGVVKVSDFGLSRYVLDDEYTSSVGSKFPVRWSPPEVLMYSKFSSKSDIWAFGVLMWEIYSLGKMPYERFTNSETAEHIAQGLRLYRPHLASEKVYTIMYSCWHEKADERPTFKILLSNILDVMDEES

# compound, IC50
records = [
    ("Cc1cc(Nc2nc(N3CCC[C@@H](NC(=O)c4ccc(N5CCCC5)cc4)C3)cnc2C(N)=O)sn1 [Example A-26]", "≤ 100 nM"),
    ("C[C@@H]1[C@H](NC(=O)N(C)C)CCCN1c1cnc(C(N)=O)c(Nc2ccc3ncccc3c2)n1 [Example A-59]", "≤ 100 nM"),
    ("Cc1cc(Nc2nc(N3CCC[C@@H](NC(=O)c4ccc(C5CC5)cc4F)C3)cnc2C(N)=O)sn1 [Example A-39]", "≤ 100 nM"),
    ("C=CC(=O)N[C@H]1CCCN(c2cnc(C(N)=O)c(Nc3ccc(-c4ncccn4)cc3)n2)C1 [Example A-89]", "≤ 100 nM"),
    ("Cc1cc(Nc2nc(N3CCC[C@@H](N(C)C(=O)c4ccc(C(C)C)cc4)C3)cnc2C(N)=O)sn1 [Example A-40]", "≤ 100 nM"),
    ("Cc1cc(Nc2nc(N3CCC[C@@H](NC(=O)NC4CCCCC4)C3)cnc2C(N)=O)sn1 [Example A-13]", "≤ 100 nM"),
    ("Cc1cc(Nc2cc(N3CCC[C@@H](NC(=O)c4ccccc4)C3)cnc2C(N)=O)sn1 [Example A-61]", "100 to 1000 nM"),
]
